Cited source for all entries: patent US20250144067A1

Attribute: Difference
# System: NCI-H292 lung cancer cells
# test protocol: FDA drug screening, complete media vs cholesterol-free media without statin (TABLE 1)
# Format: cell-based, human
# condition set: Complete minus Cholesterol-free; >0 enhanced anti-cancer activity, about 0 neutral, <0 antagonist
Number only, no unit.

Answered examples (3):
Determine its reported Difference: CCCCC(=O)OCC(=O)[C@]1(O)Cc2c(O)c3c(c(O)c2[C@@H](O[C@H]2C[C@H](NC(=O)C(F)(F)F)[C@H](O)[C@H](C)O2)C1)C(=O)c1c(OC)cccc1C3=O [Valrubicin]
0.02

Retrieve Difference measured for CSCCC(N)C(=O)O (racemic) [DL-Methionine] and print it.
−0.06

Answer with the recorded Difference for the compound listed here: CC(C)c1nc(N(C)S(C)(=O)=O)nc(-c2ccc(F)cc2)c1/C=C/[C@@H](O)C[C@@H](O)CC(=O)O [Rosuvastatin (Calcium)]
−0.24

Let's switch to this compound now.
Input O=S(=O)(O)CCS [Mesna] , output reported Difference.
−0.29

* * *

Quick list: Difference per entry.
# Tested on: NCI-H292 lung cancer cells
# test protocol: FDA drug screening, complete media vs cholesterol-free media with simvastatin (TABLE 2)
# Format: cell-based, human
# condition set: complete media vs cholesterol-free media + simvastatin (0.04 μM); >0 enhanced anti-cancer activity, about 0 neutral, <0 antagonist
Counter-ions that a name gives are not always drawn.

State its Difference: CCOc1nc2cccc(C(=O)O)c2n1Cc1ccc(-c2ccccc2-c2nc(=O)o[nH]2)cc1
−0.15

Supply measured Difference of CCCCC1C(=O)N(c2ccccc2)N(c2ccc(O)cc2)C1=O (stereo not shown) in your reply.
−0.79

Consider the compound COc1ccc(OC)c(C(O)CNC(=O)CN)c1 (stereo not shown) [Midodrine (hydrochloride)] . State its measured Difference.
−0.31

Turning now to a further compound:
Look up Difference of CCC1=C(C)CN(C(=O)NCCc2ccc(S(=O)(=O)NC(=O)N[C@H]3CC[C@H](C)CC3)cc2)C1=O [Glimepiride] and report it.
−0.21

* * *

# Tested on: NCI-H292 lung cancer cells
# test protocol: FDA drug screening, complete media vs cholesterol-free media with simvastatin (TABLE 2)
# Type: cell-based, human
# condition set: complete media vs cholesterol-free media + simvastatin (0.04 μM); >0 enhanced anti-cancer activity, about 0 neutral, <0 antagonist
Structures can show the parent of a compound that is named as a salt.
A collection of compounds and their measured Difference
Respond using a number only.

Annotate the compound COc1ccnc(C[S+]([O-])c2nc3cc(-n4cccc4)ccc3[nH]2)c1C (stereo not shown) with its measured Difference.
−0.48

Using known records, supply Difference for CCCc1nn(C)c2c(=O)[nH]c(-c3cc(S(=O)(=O)N4CCN(C)CC4)ccc3OCC)nc12
−0.10

Provide Difference value for the following compound: N#Cc1ccc(Oc2ccc3c(c2)COB3O)cc1
−0.47

Report Difference for COc1ccccc1OCC(O)CN1CCN(CC(=O)Nc2c(C)cccc2C)CC1 (stereo not shown)
−0.15

Dear colleague, please send me the reported Difference for O=[N+]([O-])c1ccc(O)c2ncccc12 when you can.
−0.13

---
Look up Difference of O=C(NCc1c(F)cc(F)cc1F)c1cn2c(c(O)c1=O)C(=O)N1[C@H]3CC[C@H](C3)O[C@@H]1C2 and report it.
−0.20

Write down Difference measured for item CCN(CC)CCNC(=O)c1ccc(N)cc1 [Procainamide (hydrochloride)]
−0.36

Give the reported Difference for this compound. C#C[C@]1(O)CC[C@H]2[C@@H]3CCc4cc(O)ccc4[C@H]3CC[C@@]21C
−0.20

Give Difference for CCc1cc2c(cc1N1CCC(N3CCOCC3)CC1)C(C)(C)c1[nH]c3cc(C#N)ccc3c1C2=O [Alectinib (Hydrochloride)]
−0.20

Retrieve Difference measured for Cc1cc2c(cc1S(N)(=O)=O)S(=O)(=O)CCC2 and print it.
−0.56

Tell me its Difference given N[C@@H](Cc1c[nH]c2ccccc12)C(=O)O as the entry.
−0.24

Output measured Difference for this item: Cc1cccc(C)c1OCC(C)N (stereo not shown) [Mexiletine (hydrochloride)]
−0.12
